- Assay protocol: Pharmacokinetics after intravenous and oral administration in rats
- Format: in vivo
- Settings: rat, plasma, iv dosing, dose 1 mg/kg, read-out: Vss
Recorded endpoint: Vd (L/kg)

Take a look at these entries with their results.
>>> val("COc1ccc(-n2cc(Nc3ncc(Cl)c(NC4CC5CN(C(C)=O)CC5C4)n3)cn2)cn1 (centres unmarked)")
1.22
>>> val("CC(O)Cn1cc(Nc2ncc(Cl)c(NC3CC4CN(S(=O)(=O)CC5CC5)CC4C3)n2)cn1 (centres unmarked)")
1.13
>>> val("Cn1cc(Nc2ncc(Cl)c(NC3CC4CN(C(=O)CC5CC5)CC4C3)n2)cn1 (centres unmarked)")
0.99

I = Cn1cc(Nc2ncc(Cl)c(NC3CC4CN(C(=O)N5CCOCC5)CC4C3)n2)cn1 (centres unmarked)
II = CC(O)Cn1cc(Nc2ncc(Cl)c(NC3CC4CN(S(=O)(=O)NC5CC5)CC4C3)n2)cn1 (centres unmarked)
III = CC(=O)N1CC2CC(CC#N)(Nc3nc(Nc4cnn(C)c4)ncc3Cl)CC2C1 (centres unmarked)
Prompt: Please produce an ascending ranking of these compounds based on Vd. Form entry: labels listed in requested order.
Completion: III, I, II

Source of measurements: patent US9938257B2
